assayed target: hTAAR5 (Homo sapiens)
Construct: full length; N-terminal HA tag (YPYDVPDYA) and first 21 residues of bovine rhodopsin (Rho-tag) kept; vector pcDps; transient in HEK293 cells
Sequence (O14804 1-337): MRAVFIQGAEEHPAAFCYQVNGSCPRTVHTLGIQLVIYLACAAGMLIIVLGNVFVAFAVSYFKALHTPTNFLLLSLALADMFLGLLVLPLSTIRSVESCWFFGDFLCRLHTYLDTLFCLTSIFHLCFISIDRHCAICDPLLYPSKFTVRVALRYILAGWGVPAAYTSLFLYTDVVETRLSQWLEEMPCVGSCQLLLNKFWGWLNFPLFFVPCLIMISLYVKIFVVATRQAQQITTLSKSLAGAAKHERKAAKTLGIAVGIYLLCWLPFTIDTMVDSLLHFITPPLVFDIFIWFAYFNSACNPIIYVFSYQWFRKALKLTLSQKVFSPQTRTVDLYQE
assay: NFAT-RE luciferase reporter (IP3-luc), HEK293
experimental context: inverse agonist; reduction of basal Gq/11 (IP3) signaling; 6 h, 37 °C; 1 nM to 100 μM
measured quantity: EC50
The reply should consist of the numeric value with the unit placed after it.

Prompt line: I have this compound here, NCCc1ccc(Oc2ccc(O)cc2)c(I)c1 , and I need its recorded EC50.
Response line: 4.4 µM
